# Test system: Mycobacterium tuberculosis
# Method: Antimycobacterial activity against Mycobacterium tuberculosis H37Rv CNCTC My 331/88 after 10 to 14 days by AlamarBlue assay
# Assay type: functional
Here the recorded MIC is given for each entry.
Only the number, expressed in µM, is required.

Compound: CCCCCNc1cnc(C(=O)Nc2ccccc2)cn1
MIC, µM: 11
//
Compound: CCCNc1cnc(C(=O)Nc2ccccc2)cn1
MIC, µM: 12.2
//
Compound: NNC(=O)c1ccncc1
MIC, µM: 1.5

Item under review: NC(=O)c1cnccn1 [PYRAZINAMIDE] . Reported MIC?
50.8

If you can, please state the reported MIC value of CCCCCCCNc1cnc(C(=O)Nc2ccccc2Cl)cn1 .
36

Reported MIC, compound CCCCCCCCNc1cnc(C(=O)Nc2ccccc2)cn1 : ____
9.6

Can you share its MIC? I mean this compound: O=C(Nc1ccccc1Cl)c1cnc(Cl)cn1
2

Item CCCCCCNc1cnc(C(=O)Nc2ccccc2)cn1 has what recorded MIC?
2.6

====

# System: Mycobacterium tuberculosis
# Method: Antimycobacterial activity against Mycobacterium tuberculosis H37Rv CNCTC My 331/88 after 10 to 14 days by AlamarBlue assay
# Assay type: functional
Quantity: MIC

Fill in: MIC of CCCNc1cnc(C(=O)Nc2ccccc2Cl)cn1 is ___
> 100 µg/mL

Request the reported MIC associated with CCCCNc1cnc(C(=O)Nc2ccccc2Cl)cn1
> 100 µg/mL

====

# Tested on: Mycobacterium tuberculosis
# Method: Antimycobacterial activity against Mycobacterium tuberculosis H37Rv CNCTC My 331/88 after 10 to 14 days by AlamarBlue assay
# Assay type: functional
Item-by-item account of MIC

Recorded MIC, per entry:
Smiles text: CCCCCCCCNc1cnc(C(=O)Nc2ccccc2Cl)cn1
MIC: > 25 mg/L
//
Smiles text: CCCCCCNc1cnc(C(=O)Nc2ccccc2Cl)cn1
MIC: > 100 mg/L

Field request: MIC | item: CCCCCNc1cnc(C(=O)Nc2ccccc2Cl)cn1
> 100 mg/L

Origin of the recorded values: ChEMBL document CHEMBL3352247
